Sourced from patent US6706716B2

- testedSystem: human α1b adrenergic receptor (Homo sapiens, UniProt P35368)
- Construct: The entire coding region of α1b (1563 bp); expressed in transfected cells
- Sequence (P35368 whole entry): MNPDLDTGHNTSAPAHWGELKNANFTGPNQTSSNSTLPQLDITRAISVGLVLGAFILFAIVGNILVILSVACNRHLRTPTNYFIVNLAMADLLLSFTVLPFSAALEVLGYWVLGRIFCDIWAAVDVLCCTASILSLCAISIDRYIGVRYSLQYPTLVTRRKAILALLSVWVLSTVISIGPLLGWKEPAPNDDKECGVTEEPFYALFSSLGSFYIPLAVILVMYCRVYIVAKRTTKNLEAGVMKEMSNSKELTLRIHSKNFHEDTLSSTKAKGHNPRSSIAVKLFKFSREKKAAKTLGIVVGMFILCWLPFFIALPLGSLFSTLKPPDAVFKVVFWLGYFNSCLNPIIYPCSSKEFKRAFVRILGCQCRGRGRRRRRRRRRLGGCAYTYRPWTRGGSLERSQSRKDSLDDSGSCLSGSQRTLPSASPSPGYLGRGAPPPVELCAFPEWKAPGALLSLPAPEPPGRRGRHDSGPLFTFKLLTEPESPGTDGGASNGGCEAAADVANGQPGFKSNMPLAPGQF
- assayText: Radioligand binding ([3H]prazosin) at cloned human α1b adrenergic receptor
- assayConditions: LM(tk-) cell membranes, read-out: Binding affinities (pKi) α1b (converted)
Listed here are molecules together with their documented Ki.
Reply with just the number (in nM).

molecule	number
C[C@H](CN1CCN(c2cc(F)ccc2F)CC1)N1C(=O)CC2(CCCC2)CC1=O [Compound 8]	63.1

Task: Tell us which Ki value is on record for COc1ccc(F)cc1C1CCN(CCN2C(=O)CC3(CCCC3)CC2=O)CC1 [Compound 12]
Result: 63.1

Task: Tell us which Ki value is on record for C[C@@H](CN1CCN(c2cc(F)ccc2F)CC1)N1C(=O)CC2(CCCC2)CC1=O [Compound 10]
Result: 3980

Task: Tell us which Ki value is on record for O=C1CC2(CCCC2)CC(=O)N1CCN1CCN(c2cc(F)ccc2F)CC1 [Compound 6]
Result: 50.1

Task: Tell us which Ki value is on record for O=C1CC2(CCCC2)CC(=O)N1CCN1CCN(c2c(F)cccc2F)CC1 [Compound 14]
Result: 126

Task: Tell us which Ki value is on record for Cc1ccc(Cl)cc1N1CCN(CCN2C(=O)CC3(CCCC3)CC2=O)CC1 [Compound 13]
Result: 3160

Task: Tell us which Ki value is on record for O=C1CC2(CCCC2)CC(=O)N1CCN1CCN(c2ccc(F)c(F)c2)CC1 [Compound 15]
Result: 1580

Task: Tell us which Ki value is on record for O=C1CC2(CCCC2)CC(=O)N1CCN1CCN(c2ccccc2F)CC1 [Compound 20]
Result: 63.1

Task: Tell us which Ki value is on record for O=C1CC2(CCCC2)CC(=O)N1CCN1CCN(c2cc(F)c(F)cc2F)CC1 [Compound 7]
Result: 398

---

- testedSystem: human α1a adrenergic receptor (Homo sapiens, UniProt P35348)
- Construct: The entire coding region of α1a (1401 bp); expressed in transfected cells
- Sequence (P35348 1-466): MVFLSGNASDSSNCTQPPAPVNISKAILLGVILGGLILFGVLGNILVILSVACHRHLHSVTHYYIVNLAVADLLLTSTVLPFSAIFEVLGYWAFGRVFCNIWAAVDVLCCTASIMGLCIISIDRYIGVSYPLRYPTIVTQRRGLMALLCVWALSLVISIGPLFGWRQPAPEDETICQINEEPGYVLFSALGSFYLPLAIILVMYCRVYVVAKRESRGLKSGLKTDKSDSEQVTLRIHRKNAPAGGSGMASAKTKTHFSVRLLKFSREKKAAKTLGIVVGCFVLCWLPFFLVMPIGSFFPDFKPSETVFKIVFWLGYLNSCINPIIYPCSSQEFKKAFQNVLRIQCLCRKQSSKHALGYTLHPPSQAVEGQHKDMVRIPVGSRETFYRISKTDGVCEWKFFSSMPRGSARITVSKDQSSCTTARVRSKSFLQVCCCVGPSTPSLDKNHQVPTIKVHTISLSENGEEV
- assayText: Radioligand binding ([3H]prazosin) at cloned human α1a adrenergic receptor
- assayConditions: LM(tk-) cell membranes, read-out: Binding affinities (pKi) α1a (converted)
recordedEndpoint: log10(Ki) (log10 of the value in µM)
All values: base-10 log of Ki in µM.

structureSmilesString	testedSystem	log10(Ki)
O=C1CC2(CCCC2)CC(=O)N1CCN1CCN(c2cc(F)c(F)cc2F)CC1	human α1a adrenergic receptor (Homo sapiens, UniProt P35348)	0.60
C[C@@H](CN1CCN(c2cc(F)ccc2F)CC1)N1C(=O)CC2(CCCC2)CC1=O	human α1a adrenergic receptor (Homo sapiens, UniProt P35348)	0.90
C[C@H](CN1CCN(c2cc(F)c(F)cc2F)CC1)N1C(=O)CC2(CCCC2)CC1=O	human α1a adrenergic receptor (Homo sapiens, UniProt P35348)	1.20

Task: Tell us which log10(Ki) value is on record for O=C1CC2(CCCC2)CC(=O)N1CCN1CCN(c2ccc(F)c(F)c2)CC1
Result: 0.60

Task: Tell us which log10(Ki) value is on record for C[C@@H](CN1CCN(c2cc(F)c(F)cc2F)CC1)N1C(=O)CC2(CCCC2)CC1=O
Result: 1.10

Task: Tell us which log10(Ki) value is on record for O=C1CC2(CCCC2)CC(=O)N1[C@@H](CN1CCN(c2cc(F)c(F)cc2F)CC1)c1ccccc1
Result: 0.90

Task: Tell us which log10(Ki) value is on record for O=C1CC2(CCCC2)CC(=O)N1[C@H](Cc1ccccc1)CN1CCN(c2cc(F)c(F)cc2F)CC1
Result: 1.00

Task: Tell us which log10(Ki) value is on record for C[C@H](CN1CCN(c2cc(F)ccc2F)CC1)N1C(=O)CC2(CCCC2)CC1=O
Result: 0.80

---

- testedSystem: human α1d adrenergic receptor (Homo sapiens)
- Construct: The entire coding region. of α1d (1719 bp); expressed in transfected cells
- Sequence (P25100 whole entry): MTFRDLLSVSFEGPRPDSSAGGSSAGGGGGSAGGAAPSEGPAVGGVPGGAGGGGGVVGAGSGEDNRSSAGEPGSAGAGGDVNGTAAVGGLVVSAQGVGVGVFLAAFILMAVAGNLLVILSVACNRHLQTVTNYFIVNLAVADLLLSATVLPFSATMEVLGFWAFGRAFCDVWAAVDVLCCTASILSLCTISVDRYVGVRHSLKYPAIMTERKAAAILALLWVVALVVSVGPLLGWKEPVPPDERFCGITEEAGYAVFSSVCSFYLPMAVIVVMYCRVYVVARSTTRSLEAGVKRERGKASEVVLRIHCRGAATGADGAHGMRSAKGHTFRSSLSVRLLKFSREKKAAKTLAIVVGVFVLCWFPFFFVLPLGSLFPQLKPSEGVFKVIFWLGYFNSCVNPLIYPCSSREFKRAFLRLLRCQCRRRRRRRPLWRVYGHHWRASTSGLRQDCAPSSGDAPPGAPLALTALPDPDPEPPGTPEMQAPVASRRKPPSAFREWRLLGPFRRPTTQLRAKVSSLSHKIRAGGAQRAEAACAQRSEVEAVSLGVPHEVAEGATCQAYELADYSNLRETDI
- assayText: Radioligand binding ([3H]prazosin) at cloned human α1d adrenergic receptor
- assayConditions: LM(tk-) cell membranes, read-out: Binding affinities (pKi) α1d (converted)
recordedEndpoint: Ki (nM)
Reply with just the number (in nM).

Worked examples, 5 compounds total:
structureSmilesString	displayUnit	Ki
C[C@@H](CN1CCN(c2cc(F)c(F)cc2F)CC1)N1C(=O)CC2(CCCC2)CC1=O	nM	126
C[C@H](CN1CCN(c2cc(F)c(F)cc2F)CC1)N1C(=O)CC2(CCCC2)CC1=O	nM	1.26
O=C1CC2(CCCC2)CC(=O)N1CCN1CCN(c2ccc(F)c(F)c2)CC1	nM	7.94
COc1ccc(F)cc1C1CCN(CCN2C(=O)CC3(CCCC3)CC2=O)CC1	nM	1
O=C1CC2(CCCC2)CC(=O)N1CCN1CCN(c2cc(F)c(F)cc2F)CC1	nM	2

Task: Tell us which Ki value is on record for O=C1CC2(CCCC2)CC(=O)N1CCN1CCN(c2c(F)cccc2F)CC1
Result: 3.98

Task: Tell us which Ki value is on record for C[C@@H](CN1CCN(c2cc(F)ccc2F)CC1)N1C(=O)CC2(CCCC2)CC1=O
Result: 50.1

Task: Tell us which Ki value is on record for O=C1CC2(CCCC2)CC(=O)N1CCN1CCN(c2cc(F)ccc2F)CC1
Result: 1

---

- testedSystem: human 5-HT1a receptor (Homo sapiens)
- Construct: receptor open reading frames and variable non-coding 5′- and 3′-regions, was cloned into the eukaryotic expression vector pCEXV-3; expressed in transfected cells; host or cells: COS-7 cells, transient (DEAE-dextran); a deposited line 5-HT1A-3 (ATCC CRL 11889) is also named
- Sequence (P08908 1-422): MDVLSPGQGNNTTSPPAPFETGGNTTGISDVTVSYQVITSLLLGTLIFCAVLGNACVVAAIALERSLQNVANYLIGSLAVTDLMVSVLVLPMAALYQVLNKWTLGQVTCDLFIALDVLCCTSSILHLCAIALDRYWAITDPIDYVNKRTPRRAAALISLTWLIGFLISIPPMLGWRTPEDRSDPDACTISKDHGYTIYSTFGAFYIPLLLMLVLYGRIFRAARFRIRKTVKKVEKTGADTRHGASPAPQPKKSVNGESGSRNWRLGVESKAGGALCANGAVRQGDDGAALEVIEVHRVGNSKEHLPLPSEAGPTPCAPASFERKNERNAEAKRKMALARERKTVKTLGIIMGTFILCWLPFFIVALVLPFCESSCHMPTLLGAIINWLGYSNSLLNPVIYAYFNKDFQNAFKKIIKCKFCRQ
- assayText: Competition binding ([3H]-8-OH-DPAT) at cloned human 5-HT1a receptor
- assayConditions: COS-7 cell membranes, read-out: Binding affinities (pKi) 5-HT1a (converted)
Listed here are compounds together with their documented Ki.
Reply with just the number (in nM).

Worked examples, 3 compounds total:
compound	Ki, nM
O=C1CC2(CCCC2)CC(=O)N1CCN1CCN(c2cc(F)c(F)cc2F)CC1 [Compound 7]	398
C[C@H](CN1CCN(c2cc(F)ccc2F)CC1)N1C(=O)CC2(CCCC2)CC1=O [Compound 8]	50.1
COc1ccc(F)cc1C1CCN(CCN2C(=O)CC3(CCCC3)CC2=O)CC1 [Compound 12]	7.94

Task: Tell us which Ki value is on record for C[C@@H](CN1CCN(c2cc(F)ccc2F)CC1)N1C(=O)CC2(CCCC2)CC1=O [Compound 10]
Result: 2510

Task: Tell us which Ki value is on record for O=C1CC2(CCCC2)CC(=O)N1CCN1CCN(c2ccc(F)c(F)c2)CC1 [Compound 15]
Result: 50.1

Task: Tell us which Ki value is on record for O=C1CC2(CCCC2)CC(=O)N1CCN1CCN(c2c(F)cccc2F)CC1 [Compound 14]
Result: 7.94

Task: Tell us which Ki value is on record for Cc1ccc(Cl)cc1N1CCN(CCN2C(=O)CC3(CCCC3)CC2=O)CC1 [Compound 13]
Result: 251

Task: Tell us which Ki value is on record for O=C1CC2(CCCC2)CC(=O)N1CCN1CCN(c2cc(F)ccc2F)CC1 [Compound 6]
Result: 25.1
